# SYSTEM NAME: F508delCFTR (Homo sapiens, UniProt P13569, DEL508-508)
# Construct: expressed in transfected cells; host or cells: CFBE41o- human lung-derived epithelial cell line, doxycycline-inducible expression
# Sequence (P13569 with tags, fused parts or gaps DEL508-508): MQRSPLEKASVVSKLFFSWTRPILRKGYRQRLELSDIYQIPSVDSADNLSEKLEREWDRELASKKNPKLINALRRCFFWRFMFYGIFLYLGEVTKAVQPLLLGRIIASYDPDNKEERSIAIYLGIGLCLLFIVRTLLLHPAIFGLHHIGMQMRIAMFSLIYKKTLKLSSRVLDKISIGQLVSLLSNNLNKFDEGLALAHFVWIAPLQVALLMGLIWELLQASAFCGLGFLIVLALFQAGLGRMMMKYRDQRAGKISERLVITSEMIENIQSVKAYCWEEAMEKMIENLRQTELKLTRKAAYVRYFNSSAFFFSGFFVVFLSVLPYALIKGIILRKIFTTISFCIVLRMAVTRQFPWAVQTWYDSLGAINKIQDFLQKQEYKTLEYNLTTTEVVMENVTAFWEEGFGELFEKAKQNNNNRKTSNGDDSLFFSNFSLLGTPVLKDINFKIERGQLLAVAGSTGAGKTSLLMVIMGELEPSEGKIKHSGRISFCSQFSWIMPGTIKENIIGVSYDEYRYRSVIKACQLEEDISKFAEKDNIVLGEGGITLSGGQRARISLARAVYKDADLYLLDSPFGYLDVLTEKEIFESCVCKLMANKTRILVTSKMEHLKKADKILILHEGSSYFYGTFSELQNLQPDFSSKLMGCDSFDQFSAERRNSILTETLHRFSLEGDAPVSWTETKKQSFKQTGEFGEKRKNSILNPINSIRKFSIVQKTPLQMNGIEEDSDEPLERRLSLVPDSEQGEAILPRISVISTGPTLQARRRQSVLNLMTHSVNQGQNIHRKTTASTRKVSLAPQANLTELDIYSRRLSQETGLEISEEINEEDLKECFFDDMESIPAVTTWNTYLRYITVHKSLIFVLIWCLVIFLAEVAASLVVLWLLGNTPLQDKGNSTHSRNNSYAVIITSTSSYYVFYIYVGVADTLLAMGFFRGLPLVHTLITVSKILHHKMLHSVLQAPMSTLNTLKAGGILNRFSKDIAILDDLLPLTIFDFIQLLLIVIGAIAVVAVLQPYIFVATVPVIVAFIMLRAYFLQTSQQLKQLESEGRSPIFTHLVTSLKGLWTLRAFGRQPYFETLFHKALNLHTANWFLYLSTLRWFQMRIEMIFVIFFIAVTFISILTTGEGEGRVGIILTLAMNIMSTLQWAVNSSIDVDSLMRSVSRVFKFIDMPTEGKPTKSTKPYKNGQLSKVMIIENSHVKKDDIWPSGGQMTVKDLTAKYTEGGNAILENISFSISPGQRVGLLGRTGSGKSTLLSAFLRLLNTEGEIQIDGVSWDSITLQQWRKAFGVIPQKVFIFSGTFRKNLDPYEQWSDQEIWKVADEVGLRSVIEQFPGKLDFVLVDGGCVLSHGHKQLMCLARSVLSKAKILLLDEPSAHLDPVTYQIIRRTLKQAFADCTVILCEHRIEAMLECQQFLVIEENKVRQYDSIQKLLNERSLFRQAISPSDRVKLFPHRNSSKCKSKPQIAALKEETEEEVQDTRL
# ASSAY COMMENT: Cell Surface Expression-Horse Radish Peroxidase (CSE-HRP) assay in CFBE41o-F508delCFTR-HRP cells
# Format: cell-based
# CONDITION DETAILS: with co-corrector (2 μM); CFBE41o-F508delCFTR-HRP cells, 18-24 hours at 33° C., luminescence; read-out: EC50 (with co-corrector)
pEC50: −log10 of the molar value.
A collection of molecules and their measured pEC50

[
  {
    "MOLECULE": "COc1ccc(C)cc1[C@]1(C(=O)NS(=O)(=O)c2cccc3nc(C)ccc23)C[C@@H]1c1ccc(C)nc1C",
    "SYSTEM NAME": "F508delCFTR (Homo sapiens, UniProt P13569, DEL508-508)",
    "pEC50": 5.40
  },
  {
    "MOLECULE": "COc1ccc(C)cc1[C@@]1(C(=O)NS(=O)(=O)c2cccc3nc(C)ccc23)C[C@H]1c1cccc(C(F)(F)F)c1 (single isomer, unassigned)",
    "SYSTEM NAME": "F508delCFTR (Homo sapiens, UniProt P13569, DEL508-508)",
    "pEC50": 6.70
  },
  {
    "MOLECULE": "COc1ccc(C)cc1[C@]1(C(=O)NS(=O)(=O)c2cccc3nc(C)ccc23)C[C@@H]1c1cnc(OC)c(F)c1",
    "SYSTEM NAME": "F508delCFTR (Homo sapiens, UniProt P13569, DEL508-508)",
    "pEC50": 6.00
  },
  {
    "MOLECULE": "COc1ccc(C)cc1[C@]1(C(=O)NS(=O)(=O)c2cccc3nc(C)ccc23)C[C@@H]1c1cnc(OC)c(OC)n1",
    "SYSTEM NAME": "F508delCFTR (Homo sapiens, UniProt P13569, DEL508-508)",
    "pEC50": 6.34
  },
  {
    "MOLECULE": "COc1ccc(C)cc1[C@]1(C(=O)NS(=O)(=O)c2cccc3nc(C)ccc23)C[C@@H]1c1cnc(C)cn1 (single isomer, unassigned) [Example 92]",
    "SYSTEM NAME": "F508delCFTR (Homo sapiens, UniProt P13569, DEL508-508)",
    "pEC50": 5.94
  },
  {
    "MOLECULE": "COc1ccc(C)cc1[C@@]1(C(=O)NS(=O)(=O)c2cccc3nc(C)ccc23)C[C@H]1c1ccccc1F (single isomer, unassigned) [Example 26]",
    "SYSTEM NAME": "F508delCFTR (Homo sapiens, UniProt P13569, DEL508-508)",
    "pEC50": 6.47
  },
  {
    "MOLECULE": "COc1ccc(C)cc1[C@]1(C(=O)NS(=O)(=O)c2cccc3nc(C)ccc23)C[C@@H]1c1cccnc1OC (single isomer, unassigned)",
    "SYSTEM NAME": "F508delCFTR (Homo sapiens, UniProt P13569, DEL508-508)",
    "pEC50": 6.02
  },
  {
    "MOLECULE": "COc1ccc([C@@H]2C[C@]2(C(=O)NS(=O)(=O)c2cccc3nc(C)ccc23)c2cc(C)ccc2OC)c(OC)n1 (racemic) [Example 79]",
    "SYSTEM NAME": "F508delCFTR (Homo sapiens, UniProt P13569, DEL508-508)",
    "pEC50": 6.77
  },
  {
    "MOLECULE": "COc1cnc([C@H]2C[C@@]2(C(=O)NS(=O)(=O)c2cccc3nc(C)ccc23)c2cc(C)ccc2OC)cn1 (single isomer, unassigned)",
    "SYSTEM NAME": "F508delCFTR (Homo sapiens, UniProt P13569, DEL508-508)",
    "pEC50": 5.97
  },
  {
    "MOLECULE": "COc1cccc([C@H]2C[C@@]2(C(=O)NS(=O)(=O)c2cccc3nc(C)ccc23)c2cc(C)ccc2OC)c1 (single isomer, unassigned)",
    "SYSTEM NAME": "F508delCFTR (Homo sapiens, UniProt P13569, DEL508-508)",
    "pEC50": 6.38
  },
  {
    "MOLECULE": "COc1ccc(C)cc1[C@]1(C(=O)NS(=O)(=O)c2cccc3nc(C)ccc23)C[C@@H]1c1cnc(C)cn1 (racemic) [Example 89]",
    "SYSTEM NAME": "F508delCFTR (Homo sapiens, UniProt P13569, DEL508-508)",
    "pEC50": 5.90
  },
  {
    "MOLECULE": "COc1ccc(C)cc1[C@]1(C(=O)NS(=O)(=O)c2cccc3nc(C)ccc23)C[C@@H]1c1cncc(F)c1 (single isomer, unassigned)",
    "SYSTEM NAME": "F508delCFTR (Homo sapiens, UniProt P13569, DEL508-508)",
    "pEC50": 5.70
  }
]

* * *

# SYSTEM NAME: F508del/F508del CFTR (Homo sapiens, UniProt P13569, DEL508-508)
# Construct: cells isolated from CF patients with the homozygous mutation; endogenous in cells; host or cells: primary human bronchial epithelial (hBE) cells from CF patients homozygous for F508del
# Sequence (P13569 with tags, fused parts or gaps DEL508-508): as above
# ASSAY COMMENT: Trans-Epithelial Current Clamp (TECC) assay using primary human bronchial epithelial cells
# Format: cell-based
# CONDITION DETAILS: maximum percent activity relative to positive control (co-corrector 0.15 μM + potentiator 0.45 μM = 100%); primary hBE cells F508del/F508del
A collection of molecules and their measured Emax (% Dual)
METRIC: Emax (% Dual)

[
  {
    "MOLECULE": "COc1ccc(C)cc1[C@@]1(C(=O)NS(=O)(=O)c2cccc3nc(C)ccc23)C[C@H]1c1cncc(F)c1 (single isomer, unassigned) [Example 53]",
    "UNIT OF MEASURE": "% Dual",
    "RECORDED RESULT": 169
  },
  {
    "MOLECULE": "COc1ccc(C)cc1[C@]1(C(=O)NS(=O)(=O)c2cccc3nc(C)ccc23)C[C@@H]1c1cccc(C(F)(F)F)c1 (racemic) [Example 12]",
    "UNIT OF MEASURE": "% Dual",
    "RECORDED RESULT": 407
  },
  {
    "MOLECULE": "COc1ccc(C)cc1[C@@]1(C(=O)NS(=O)(=O)c2cccc3nc(C)ccc23)C[C@H]1c1cnc(C(C)C)cn1 (racemic) [Example 61]",
    "UNIT OF MEASURE": "% Dual",
    "RECORDED RESULT": 281
  },
  {
    "MOLECULE": "COc1ccc(C)cc1[C@@]1(C(=O)NS(=O)(=O)c2cccc3nc(C)ccc23)C[C@H]1c1cncc(C)n1 (single isomer, unassigned) [Example 45]",
    "UNIT OF MEASURE": "% Dual",
    "RECORDED RESULT": 179
  },
  {
    "MOLECULE": "COc1ccc(C)cc1[C@]1(C(=O)NS(=O)(=O)c2cccc3nc(C)ccc23)C[C@@H]1c1ccc(C(F)F)nc1",
    "UNIT OF MEASURE": "% Dual",
    "RECORDED RESULT": 291
  },
  {
    "MOLECULE": "CCOc1cnc([C@@H]2C[C@]2(C(=O)NS(=O)(=O)c2cccc3nc(C)ccc23)c2cc(C)ccc2OC)cn1 (racemic) [Example 62]",
    "UNIT OF MEASURE": "% Dual",
    "RECORDED RESULT": 329
  }
]

* * *

# SYSTEM NAME: F508delCFTR (Homo sapiens, UniProt P13569, DEL508-508)
# Construct: expressed in transfected cells; host or cells: CFBE41o- human lung-derived epithelial cell line, doxycycline-inducible expression
# ASSAY COMMENT: Cell Surface Expression-Horse Radish Peroxidase (CSE-HRP) assay in CFBE41o-F508delCFTR-HRP cells
# Format: cell-based
# CONDITION DETAILS: with co-corrector (2 μM); CFBE41o-F508delCFTR-HRP cells, 18-24 hours at 33° C., luminescence; read-out: EC50 (with co-corrector)
Doc: threshold 800 nM (exclusive). Items with EC50 beneath it return 1 (yes); others return 0 (no).

[
  {
    "COMPOUND": "COc1ccc(C)cc1[C@]1(C(=O)NS(=O)(=O)c2cccc3nc(C)ccc23)C[C@@H]1c1ccc(C)nc1OC (single isomer, unassigned) [Example 86]",
    "CLASS LABEL": "0 (no)"
  },
  {
    "COMPOUND": "COc1ccc(C)cc1[C@]1(C(=O)NS(=O)(=O)c2cccc3nc(C)ccc23)C[C@@H]1c1ccc(C)cc1 (single isomer, unassigned) [Example 7]",
    "CLASS LABEL": "0 (no)"
  },
  {
    "COMPOUND": "COc1nccc([C@@H]2C[C@]2(C(=O)NS(=O)(=O)c2cccc3nc(C)ccc23)c2cc(C)ccc2OC)n1 (single isomer, unassigned) [Example 99]",
    "CLASS LABEL": "0 (no)"
  },
  {
    "COMPOUND": "COc1ccc(C)cc1[C@@]1(C(=O)NS(=O)(=O)c2cccc3nc(C)ccc23)C[C@H]1c1ccccc1C(F)(F)F (single isomer, unassigned) [Example 31]",
    "CLASS LABEL": "1 (yes)"
  },
  {
    "COMPOUND": "COc1ccc(C)cc1[C@]1(C(=O)NS(=O)(=O)c2cccc3nc(C)ccc23)C[C@@H]1c1ccc(C(C)C)nn1 [Example 69]",
    "CLASS LABEL": "0 (no)"
  },
  {
    "COMPOUND": "COc1ccc(C)cc1[C@@]1(C(=O)NS(=O)(=O)c2cccc3nc(C)ccc23)C[C@H]1c1ccc(C)cc1 (racemic) [Example 4]",
    "CLASS LABEL": "1 (yes)"
  },
  {
    "COMPOUND": "COc1ccc(C)cc1[C@@]1(C(=O)NS(=O)(=O)c2cccc3nc(C)ccc23)C[C@H]1c1cncc(F)c1 (racemic) [Example 42]",
    "CLASS LABEL": "0 (no)"
  },
  {
    "COMPOUND": "COc1ccc(C)cc1[C@]1(C(=O)NS(=O)(=O)c2cccc3nc(C)ccc23)C[C@@H]1c1cnc(OC)c(Cl)c1 [Example 102]",
    "CLASS LABEL": "0 (no)"
  },
  {
    "COMPOUND": "COc1ccc(C)cc1[C@]1(C(=O)NS(=O)(=O)c2cccc3nc(C)ccc23)C[C@@H]1c1ccccc1C(F)(F)F (racemic) [Example 29]",
    "CLASS LABEL": "1 (yes)"
  },
  {
    "COMPOUND": "COc1ccc(C)cc1[C@]1(C(=O)NS(=O)(=O)c2cccc3nc(C)ccc23)C[C@@H]1c1cccc(C)n1 [Example 96]",
    "CLASS LABEL": "0 (no)"
  },
  {
    "COMPOUND": "COc1ccc(C)cc1[C@]1(C(=O)NS(=O)(=O)c2cccc3nc(C)ccc23)C[C@@H]1c1cnc(OC)c(C)c1 [Example 103]",
    "CLASS LABEL": "1 (yes)"
  }
]
